Just for reference, the supplement of paper PMC11451515 is where these values come from.

- System: P12-Ichikawa
- Test Details: AUC of viability dose-response curve (% viability x log10 dose units); higher = less sensitive
- Condition: RPMI 5 mM glucose + 10% FBS; 48 h
Observable: AUC of viability dose-response curve
Could you respond with only the numeric value?

Some compounds with known AUC of viability dose-response curve results, for comparison:
>  <Compound>
CC(O)(C#Cc1ccc2c(c1)N(c1nc(N)ncc1Cl)CC2)c1nccs1 (centres undefined)

>  <Reported>
468

$$$$
>  <Compound>
Cc1cccc(CN2CCN(C(c3ccccc3)c3ccc(Cl)cc3)CC2)c1 (centres undefined)

>  <Reported>
429

$$$$
>  <Compound>
CC(C)N(CC[C@H](c1ccccc1)c1cc(CO)ccc1O)C(C)C

>  <Reported>
461

$$$$
>  <Compound>
NC(=O)c1cccc2cn(-c3ccc([C@@H]4CCCNC4)cc3)nc12

>  <Reported>
441

$$$$
>  <Compound>
CN1CCCC(CC1)N2\N=C(CC3=CC=C(Cl)C=C3)/C4=C(C=CC=C4)C2=O (centres undefined)

>  <Reported>
466

$$$$

Please turn your attention to the following entry.
Prompt: Let me know recorded AUC of viability dose-response curve for NC(=O)c1cccc2nc(-c3ccc([C@H]4CCCN4)cc3F)[nH]c12 , thanks.
Completion: 466

---

- Tested on: SEM cells
- Test Details: cell viability relative to DMSO control; higher = less cytotoxic
- Condition: RPMI 5 mM glucose + 10% dialyzed FBS; 48 h; 0.19 µM
Observable: cell viability

Some molecules with known cell viability results, for comparison:
>  <Molecule>
COC1=C2C[C@@H](C)C[C@H](OC)[C@H](O)[C@@H](C)/C=C(\C)[C@H](OC(N)=O)[C@@H](OC)/C=C/C=C(\C)C(=O)NC(=CC1=O)C2=O

>  <System Tested>
SEM cells

>  <Observable>
cell viability

>  <Reported>
95.8%

$$$$
>  <Molecule>
CCC(=C/[C@H](C)C/C=C/C(C)=C/[C@@H](C)C(=O)[C@@H](C)[C@H](O)[C@@H](C)C/C(C)=C/C(=O)O)/C=C/[C@@H]1OC(=O)C=C[C@@H]1C

>  <System Tested>
SEM cells

>  <Observable>
cell viability

>  <Reported>
77.7%

$$$$

Prompt: State measured cell viability of the molecule Cc1cc(Nc2cc(CN3CCOCC3)c3nc(C)c(Cc4ccc(Cl)cc4F)n3n2)[nH]n1 with SEM cells.
Completion: 95.2%

---

- Test system: SEM cells
- Test Details: cell viability relative to DMSO control; higher = less cytotoxic
- Condition: RPMI 5 mM glucose + 10% dialyzed FBS; 48 h; 46.1 µM
Observable: cell viability

Some compounds with known cell viability results, for comparison:
>  <Molecule>
N#Cc1ccnc(Nc2cc(C3CCN(C4COC4)CC3)cc(N3CCC(F)(F)C3)n2)c1

>  <cell viability>
9.03%

$$$$
>  <Molecule>
CC[C@H](C)C(=O)O[C@H]1C[C@H](O)\C=C2\C=C/[C@H](C)[C@H](CC[C@@H](O)C[C@@H](O)CC(O)=O)[C@@H]12

>  <cell viability>
86.2%

$$$$

Please turn your attention to the following entry.
Prompt: Let me know recorded cell viability for CNC[C@H](O)c1cccc(O)c1 , thanks.
Completion: 111%

---

The entries below come with measured cell viability values attached.
- Tested on: NOMO1
- Test Details: cell viability relative to DMSO control; higher = less cytotoxic
- Condition: HPLM + 10% dialyzed FBS; 48 h; 0.00234 µM
Numbers only here, please. The scale is %.

Some compounds with known cell viability results, for comparison:
>  <Molecule>
O=C(Oc1ccc([N+](=O)[O-])cc1)N1CCC(C(O)(c2ccc3c(c2)OCO3)c2ccc3c(c2)OCO3)CC1

>  <Result Unit>
%

>  <cell viability>
95.5

$$$$
>  <Molecule>
[O-]C(=O)C1=C(C(=C(Cl)C(=C1Cl)Cl)Cl)C/2=C/3\C=C(I)/C(=O)/C(=C3OC4=C2C=C(I)C(=C4I)[O-])I

>  <Result Unit>
%

>  <cell viability>
136

$$$$
>  <Molecule>
O=C(O)/C=C/c1ccc(O)c(O)c1

>  <Result Unit>
%

>  <cell viability>
125

$$$$

Please turn your attention to the following entry.
Prompt: Let me know recorded cell viability for COC1=CC=C(C=C1O)C/2=C/C(=O)C3=C(O2)C=C(O)C=C3O , thanks.
Completion: 108
